- tested-target: Cathepsin S (Homo sapiens, UniProt P25774)
- Sequence (P25774 whole entry): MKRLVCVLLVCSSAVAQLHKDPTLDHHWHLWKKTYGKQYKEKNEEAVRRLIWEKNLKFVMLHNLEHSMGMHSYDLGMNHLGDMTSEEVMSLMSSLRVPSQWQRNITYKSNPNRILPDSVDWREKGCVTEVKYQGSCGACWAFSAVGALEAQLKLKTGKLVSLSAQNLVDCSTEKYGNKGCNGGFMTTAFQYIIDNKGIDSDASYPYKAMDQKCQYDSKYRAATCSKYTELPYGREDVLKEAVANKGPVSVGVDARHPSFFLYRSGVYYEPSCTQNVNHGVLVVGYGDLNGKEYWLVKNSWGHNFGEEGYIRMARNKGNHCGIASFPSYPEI
value-type: Ki (µM)

Take a look at these entries with their results.
O=C(N[C@H](CNc1ccc(OC(F)(F)F)cc1)c1ccccc1)[C@@H](CC(=O)N1CCOCC1)CC1CCCCC1 | 0.062
O=C(NCCNc1ccc(OC(F)(F)F)cc1)[C@@H](CC(=O)N1CCOCC1)CC1CCCCC1 | 0.194
O=C(N[C@@H](CCc1ccccc1)CNc1ccc(OC(F)(F)F)cc1)[C@@H](CC(=O)N1CCOCC1)CC1CCCCC1 | 0.018
CC(C)[C@@H](CNc1ccc(OC(F)(F)F)cc1)NC(=O)[C@@H](CC(=O)N1CCOCC1)c1cccc(C(F)(F)F)c1 | 18.5

A: O=C(N[C@H](CNc1ccc(OC(F)(F)F)cc1)c1ccccc1)[C@@H](CC(=O)N1CCOCC1)c1ccccc1
B: CC(C)[C@@H](CNc1ccc(OC(F)(F)F)cc1)NC(=O)[C@H](CCc1ccccc1)CC(=O)N1CCOCC1
C: O=C(N[C@H](CNc1ccc(OC(F)(F)F)cc1)C1CC1)[C@@H](CC(=O)N1CCOCC1)c1ccc(C(F)(F)F)cc1
INPUT: Hey, quick one: sort these by Ki, largest value first please. # output: labels, in the requested order
OUTPUT: C, A, B

1: C[C@@H](CNc1ccc(OC(F)(F)F)cc1)NC(=O)[C@@H](CC(=O)N1CCOCC1)CC1CCCCC1
2: CC(C)[C@@H](CNc1ccc(OC(F)(F)F)cc1)NC(=O)[C@@H](CC(=O)N1CCOCC1)CC1CCCCC1
INPUT: Could you check which of 1 and 2 has a smaller value for Ki? Choose, then provide that item's label.
OUTPUT: 2
(2: 0.011 µM, 1: 0.028 µM)

a: CCC[C@@H](CNc1ccc(OC(F)(F)F)cc1)NC(=O)[C@@H](CC(=O)N1CCOCC1)CC1CCCC1
b: O=C(N[C@@H](CCc1ccccc1)CNc1ccc(OC(F)(F)F)cc1)[C@H](CCC1CCCC1)CC(=O)N1CCOCC1
INPUT: Could you check which of a and b has a smaller value for Ki? Answer format: the label of the selected item.
OUTPUT: a
(a: 0.012 µM, b: 0.2 µM)

A: CC(C)[C@@H](CNc1ccc(OC(F)(F)F)cc1)NC(=O)[C@@H](CC(=O)N1CCOCC1)c1ccccc1
B: C[C@@H](CNc1ccc(OC(F)(F)F)cc1)NC(=O)[C@H](CCC1CCCCC1)CC(=O)N1CCOCC1
INPUT: Compare A and B by numeric Ki and name the larger one. Refer to your chosen entry by its label in the reply.
OUTPUT: B

Data origin, for the record: ChEMBL document CHEMBL1139902
